Ref: PubChem BioAssay (NCATS)

assay: qHTS of pediatric cancer cell lines to identify multiple opportunities for drug repurposing: Confirmatory screen for BT-12 cells (AID 1347112); details: BT-12 rhabdoid tumor cells, viability; series mostly up to 45.9 µM;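 note: viability read after 48 h of compound exposure; nearly all actives have a fitted effect of over 55% in size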
Inconclusive results are not listed. The source made the active and inactive calls. Calls come from the whole dose curve; as a rule, active = well fitted cell-killing curve with a large enough effect; inconclusive = small, poorly fitted or top-dose-only effect; inactive = flat fitted curve, though single readings scatter.
Give one outcome, nothing more. List: active, inactive

# outcome recorded in this test, key = `COc1cccc2c1C(=O)c1c(O)c3c(c(O)c1C2=O)C[C@@](O)(C(C)=O)C[C@H]3O[C@H]1C[C@H](N)[C@H](O)[C@H](C)O1`
active

# outcome recorded in this test, key = `CC(C=CC1=C(C)CCCC1(C)C)=CC=CC(C)=CC(=O)Nc1ccc(O)cc1`
active

# outcome recorded in this test, key = `O=C(O)c1ccc(Nc2ncc3c(n2)-c2ccc(Cl)cc2C(c2c(F)cccc2F)=NC3)cc1`
inactive

# outcome recorded in this test, key = `COc1ccc(S(=O)(=O)Nc2cccnc2Nc2ccc(O)cc2)cc1`
active

# outcome recorded in this test, key = `Cc1ncc(-c2ccnc(Nc3ccc(S(C)(=O)=O)cc3)n2)n1C(C)C`
active

# outcome recorded in this test, key = `CCc1cnn2c(NCc3ccc[n+]([O-])c3)cc(N3CCCC[C@@H]3CCO)nc12`
inactive

# outcome recorded in this test, key = `O=S(=O)(O)CCSSCCS(=O)(=O)O`
inactive

# outcome recorded in this test, key = `CN(C)c1ccc(C(=O)NCCCCCCC(=O)NO)cc1`
active

# outcome recorded in this test, key = `N#Cc1c(C2CCNCC2)cc(-c2c(O)cccc2OCC2CC2)nc1N`
inactive

# outcome recorded in this test, key = `CC[C@@]1([C@@H]2O[C@@H]([C@H]3O[C@@](O)(CO)[C@H](C)C[C@H]3C)C[C@H]2C)CC[C@H]([C@]2(C)CC[C@]3(C[C@H](O)[C@@H](C)[C@@H]([C@@H](C)[C@@H](OC)[C@H](C)C(=O)O)O3)O2)O1`
active

# outcome recorded in this test, key = `CC(C)(O)Cn1c(NC(=O)c2ccc(-c3cn[nH]c3)s2)nc2cc(CN3CCOCC3)ccc21`
active

###

experiment: qHTS of pediatric cancer cell lines to identify multiple opportunities for drug repurposing: Confirmatory screen for SK-N-SH cells (AID 1347129); details: SK-N-SH neuroblastoma cell viability; series mostly up to 46.1 µM;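 note: cells exposed to compound for 48 h before viability read; nearly all actives have a fitted effect of over 60% in size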
Inconclusive results are not listed. Active and inactive are the calls of the source. Calls follow the shape of the dose curve; as a rule, active = well fitted cell-killing curve with a large enough effect; inconclusive = small, poorly fitted or top-dose-only effect; inactive = flat fitted curve, though single readings scatter.
Give one outcome, nothing more. List: 1 (active), -1 (inactive)

# outcome recorded in this test, key = `CC(=O)N1CCN(c2ccc(OCc3nn(C)c(C)c3-c3cccc4c(CCCOc5cccc6ccccc56)c(C(=O)O)n(Cc5cccnc5)c34)cc2)CC1`
-1

# outcome recorded in this test, key = `CNC(=O)c1cccc(-c2ccc3c(N4CCOC[C@H]4C)nc(N4CCOC[C@H]4C)nc3n2)c1`
1

# outcome recorded in this test, key = `FC(F)c1nc2ccccc2n1-c1nc(N2CCOCC2)nc(N2CCOCC2)n1`
1

# outcome recorded in this test, key = `COC(=O)C=CC(=O)OC`
-1

# outcome recorded in this test, key = `CC(C=CC1=C(C)CCCC1(C)C)=CC=CC(C)=CC(=O)Nc1ccc(O)cc1`
1

# outcome recorded in this test, key = `O=C(Nc1cc2cc[nH]c2cn1)c1ccccc1`
1

###

test: qHTS of pediatric cancer cell lines to identify multiple opportunities for drug repurposing: Primary screen for Saos-2 cells (AID 1347097); conditions: Saos-2 viability, CellTiter-Glo ATP luminescence, 48 h; series mostly up to 46 µM; note: nearly all actives have a fitted effect of over 40% in size; note: potency is the fitted concentration of half-maximal effect
Inconclusive results are not listed. The source made the active and inactive calls. Calls follow the shape of the dose curve; as a rule, active = well fitted cell-killing curve with a large enough effect; inconclusive = small, poorly fitted or top-dose-only effect; inactive = no such curve, though single readings can be large or run the other way.
measured-quantity: Potency

# compound-string, Potency
data = [
    ("O=C(CCCCCCC(=O)Nc1cccnc1)NO", "13.2 µM (active)"),
    ("C[N+]1(C)[C@@H]2C[C@@H](OC(=O)C(O)(c3cccs3)c3cccs3)C[C@H]1[C@@H]1O[C@@H]12", "inactive"),
    ("COc1cc(C)c(C=CC(C)=CC=CC(C)=CC(=O)O)c(C)c1C", "inactive"),
    ("CCCCCCCCc1ccc(CCC(N)(CO)CO)cc1", "18.7 µM (active)"),
    ("CC(C)(O)Cn1c(NC(=O)c2ccc(-c3cn[nH]c3)s2)nc2cc(CN3CCOCC3)ccc21", "0.743 µM (active)"),
]

Item: `C#C[C@]1(O)CC[C@@H]2[C@@H]3CCc4cc(O)ccc4[C@H]3CC[C@@]21C` | Potency: 18.7 µM (active)

Item: `O=c1ccn([C@@H]2O[C@H](CO)[C@H](O)[C@@H]2F)c(=O)[nH]1` | Potency: inactive

Item: `O=c1[nH]c(=O)n([C@H]2C[C@@H](O)[C@@H](CO)O2)cc1F` | Potency: 5.9 µM (active)
